Listed next: entries and their corresponding T/C.
Tested on: BDF1 mice, P388 leukemia ip, median survival T/C
PROTOCOL_NOTES: NCI In Vivo Anticancer Drug Screen. Data for tumor model P388 Leukemia (intraperitoneal) in B6D2F1 (BDF1) mice
PROTOCOL_CONDITIONS: endpoint: median survival time; dose: 400.0 mg/kg/injection; schedule: Q04DX003 (ip); vehicle: saline with Tween-80; higher = longer survival
Toxic doses and inconclusive results are not listed.

Example compounds with recorded T/C:
In [3]: df
Out[3]:
                         compound                                       tgt  measure_name            result
0      COc1ccc(/C(C)=C\C(=O)O)cc1  BDF1 mice, P388 leukemia ip, median survival T/C           T/C   95 % of control
1  Cc1ccc(NC(=O)c2ccccc2Cl)c(C)c1  BDF1 mice, P388 leukemia ip, median survival T/C           T/C  109 % of control
2                COC(C)(OC)C(N)=O  BDF1 mice, P388 leukemia ip, median survival T/C           T/C  104 % of control

Query: API: value(readout= T/C, system= BDF1 mice, P388 leukemia ip, median survival T/C, query= C/C=C(/Cl)c1c(C)cc(C)cc1C )
Result: 103 % of control

Query: Record lookup: for BDF1 mice, P388 leukemia ip, median survival T/C, what T/C belongs to CC(C)c1nc(-c2ccccc2)c(-c2ccccc2)[nH]1 ?
Result: 100 % of control

Query: Kindly state the measured T/C obtained for C[C@]12C[C@@H](F)C(=O)C[C@@H]1CC[C@@H]1[C@@H]2CC[C@]2(C)[C@@H](O)CC[C@@H]12 with BDF1 mice, P388 leukemia ip, median survival T/C.
Result: 105 % of control

Query: Record lookup: for BDF1 mice, P388 leukemia ip, median survival T/C, what T/C belongs to CC(C)(C)c1ccc(Sc2cccc3c2C(=O)c2c(Cl)cccc2C3=O)cc1 ?
Result: 92 % of control

Query: I'm curious: which T/C was measured for O=Cc1[nH]c(=S)[nH]c(=O)c1Cc1cccc(Cl)c1 tested on BDF1 mice, P388 leukemia ip, median survival T/C?
Result: 113 % of control

Query: Lookup: T/C / BDF1 mice, P388 leukemia ip, median survival T/C / COC(=O)C1SCc2ccccc2C1=O (stereo not drawn)
Result: 105 % of control

Query: Hi! What's the reported T/C for N#Cc1ccc(Oc2ccc(C#N)cc2)cc1 on BDF1 mice, P388 leukemia ip, median survival T/C?
Result: 88 % of control

Query: Fill in the recorded T/C for this compound, with BDF1 mice, P388 leukemia ip, median survival T/C as test system: OC(CCl)COCC#Cc1ccccc1 (stereo not drawn)
Result: 95 % of control

Query: Give the reported T/C for C=CCN(CC=C)CCNc1nc(C(Cl)(Cl)Cl)nc2ccc(Cl)cc12 (system: BDF1 mice, P388 leukemia ip, median survival T/C).
Result: 116 % of control

Query: // lookup T/C | system=BDF1 mice, P388 leukemia ip, median survival T/C | key= Cc1c(C)c([N+](=O)[O-])c(Br)c(C)c1[N+](=O)[O-]
Result: 122 % of control
